assay: in vivo; design: species or system Lewis rats; conditions: rat, 5 mg/kg
METRIC: concentration at 4 h (ng/mL)
Write the answer as a number in ng/mL, unit excluded.

Prompt: So what's the measured concentration at 4 h for this one? C=CC[C@@H]1/C=C(\C)C[C@H](C)C[C@H](OC)[C@H]2O[C@@](O)(C(=O)C(=O)N3CCCC[C@H]3C(=O)O[C@H](/C(C)=C/[C@@H]3CC[C@@H](O)[C@H](OC)C3)[C@H](C)[C@@H](O)CC1=O)[C@H](C)C[C@@H]2OC [FK-506, reference compound]
Response: 430
